// data source = the supplement of paper PMC13380429

System: Calu-3
Assay Notes: cell viability relative to DMSO; higher = less toxic
Setup Conditions: 72 h; 1000 nM
Provide the reported cell viability of each item.
Expressed in %, but write only the number.

## Task Which cell viability value belongs to CN(C)CCNc1nc2cc(O)ccc2c2c1C(=O)c1ccccc1-2 [TAS-103] ?
## Result 50.4

## Task Okay, and CCOC(=O)c1ncn2c1[C@@H]1CCCN1C(=O)c1cc(OC)ccc1-2 [L-655,708] ?
## Result 96.7

## Task Similarly, `COc1cccc(-c2cc(=O)c3ccccc3o2)c1N` ?
## Result 106

## Task What about COc1ccc(-c2cnc3c(-c4cccc5ncccc45)cnn3c2)cc1 [ML347] ?
## Result 101

## Task Now the same for CCN1C[C@]2(COC(=O)c3ccccc3N3C(=O)C[C@H](C)C3=O)CC[C@H](OC)[C@@]34[C@@H]5C[C@H]6[C@H](OC)[C@@H]5[C@](O)(C[C@@H]6OC)[C@](O)([C@@H](OC)[C@H]23)[C@@H]14 [methyllycaconitine]
## Result 91.1

## Task Record: CCCCN1[C@@H]2CC[C@H]1C[C@@H](OC(c1ccc(F)cc1)c1ccc(F)cc1)C2 [JHW-007]
## Result 96.6

## Task Let us now turn to `NCCCCN(Cc1nc2ccccc2[nH]1)[C@H]1CCCc2cccnc21`
## Result 90.4

## Task Entry CC(C)c1cnn2c(NCc3ccccc3)cc(NCCCCCCN)nc12 [BS-181] please
## Result 115

## Task Now the compound `CNC(=O)c1c(F)cccc1Nc1nc(Nc2cc3c(cc2OC)CCN3C(=O)CN(C)C)nc2[nH]ccc12`
## Result 95.1

## Task Consider next the compound Cc1nccn1CC1CCc2c(c3ccccc3n2C)C1=O (stereo not given) [ondansetron] in the same way.
## Result 97.6

## Task Quick one: `Cn1cc(C2=C(c3ccc(Cl)cc3Cl)C(=O)NC2=O)c2ccccc21`
## Result 122

## Task Next: C/C=C1/[C@H](O[C@@H]2O[C@H](CO)[C@@H](O)[C@H](O)[C@H]2O)OC=C(C(=O)OC)[C@H]1CC(=O)OCCc1ccc(O)c(O)c1 [oleuropein]
## Result 102

## Task // next record `COc1ccccc1N1CCN(CCN(C(=O)C2CCCCC2)c2ccccn2)CC1`
## Result 92.2

## Task Now the compound O=C(O)c1ccc(S(=O)(=O)N(Cl)Cl)cc1 [halazone]
## Result 94.7

## Task Now consider `CCCOCCn1c(=O)c(N2CCN(CCO)CC2)nc2cnc(-c3ccc(OC)nc3)cc21` and answer again.
## Result 94.2

## Task Check `CCc1cc(C(C)=O)c(O)cc1OCCCCCC(C)(C)c1nn[nH]n1` too.
## Result 98

## Task Could you do the same for `CC(C)NC(=O)c1ccc(C#Cc2ccncc2)cn1` , please?
## Result 99

## Task Now the same for Cc1ncc(C[n+]2csc(CCOP(=O)(O)OP(=O)(O)O)c2C)c(N)n1 [thiamine-pyrophosphate]
## Result 94

## Task Again, but for CCc1nn(CCO)c(CC)c1Oc1cc(C#N)cc(C#N)c1 [lersivirine]
## Result 114

## Task # iterate: CN1CC[C@@H]2CN3CCc4cccc(c43)[C@@H]2C1 [SDZ-SER-082]
## Result 94.9

## Task Cool, now COC(=O)[C@H]1[C@H]2C[C@@H]3c4[nH]c5cc(OC)ccc5c4CCN3C[C@H]2C[C@@H](OC(=O)c2cc(OC)c(OC)c(OC)c2)[C@@H]1OC [reserpine]
## Result 102

## Task Try the compound Nc1nccc(Oc2ccc(NC(=O)c3c[nH]cc(-c4ccc(F)cc4)c3=O)cc2F)c1Cl [metatinib]
## Result 95.3

## Task Next compound: C[C@H](N)C(=O)N[C@@H](CCC(N)=O)C(=O)O [dipeptamin]
## Result 95.1

## Task Also, O=C(c1ccc(F)c(F)c1Nc1ccc(I)cc1F)N1CC(O)([C@@H]2CCCCN2)C1 [cobimetinib] please.
## Result 50.1

## Task Continue with O=C1C=CC(=O)C2=C1C1c3ccccc3C2c2ccccc21 [INCA-6]
## Result 95.7

## Task Now the compound Clc1ccc(-c2nc3sccn3c2/C=N/OCc2ccc(Cl)c(Cl)c2)cc1 [CITCO]
## Result 93.6

## Task Lookup c1ccc2c(c1)sc1ccccc12 [dibenzothiophene]
## Result 96.1

## Task Proceed to [O-][n+]1cccc(CO)c1 [mepiroxol]
## Result 109

## Task Consider next the compound Fc1ccccc1-c1nc2ccn(Cc3ccc(-c4ccc(C(F)(F)F)cc4C(F)(F)F)nn3)cc-2n1 [tegobuvir] in the same way.
## Result 90.3

## Task Same again, this time with Fc1ccc(C(c2ccccc2)(c2ccccc2F)n2ccnc2)cc1 (stereo not given) [flutrimazole]
## Result 90.4

## Task Would you kindly repeat that for `CCNC(=O)c1n[nH]c(-c2cc(Cl)c(O)cc2O)c1-c1ccc(OC)cc1` ?
## Result 85.8

## Task Next entry: O=C1OC(OC(=O)c2cccnc2Nc2cccc(C(F)(F)F)c2)c2ccccc21 (stereo not given) [talniflumate]
## Result 99.1

## Task And Cc1ccc(Cl)c(OCC(O)CNC(C)(C)C)c1 (stereo not given) [bupranolol] ?
## Result 105

## Task // query: C[C@]12C=CC(=O)C=C1CC[C@@H]1[C@@H]2[C@@H](O)C[C@@]2(C)[C@H]1CC[C@]2(O)C(=O)COP(=O)(O)O [prednisolone-sodium-phosphate]
## Result 82.5

## Task Another compound to check: O=C(Cc1ccccc1)Nc1nc2ccc(Cl)cc2c2nc(-c3ccco3)nn12 [MRS-1220]
## Result 94.1

---

Answer each item with its documented cell viability.
Test system: Caco-2
Assay Notes: cell viability relative to DMSO; higher = less toxic
Setup Conditions: 72 h; 1000 nM
Answer with a number only, understood to be in %.

## Task Quick check: cell viability on Caco-2, item `Fc1ccccc1-c1nc2ccn(Cc3ccc(-c4ccc(C(F)(F)F)cc4C(F)(F)F)nn3)cc-2n1` ?
## Result 99.2

## Task Try this compound next: `OCCN1CCN(CC/C=C2/c3ccccc3Sc3ccc(C(F)(F)F)cc32)CC1`
## Result 87.6

## Task Try this compound next: `Cc1ccsc1/C=C/C1=NCCCN1C`
## Result 94.6

## Task Ok, now C=CCSCC1Nc2cc(Cl)c(S(N)(=O)=O)cc2S(=O)(=O)N1 (stereo not given) [althiazide]
## Result 90.9

## Task Follow-up entry: `NC(=O)NCCN1CCN(c2cccc(C(F)(F)F)c2)CC1`
## Result 96.8

---

Tested on: Caco-2
Assay Notes: cell viability relative to DMSO; higher = less toxic
Setup Conditions: 72 h; 100 nM
Reported Metric: cell viability (%)
Supply the numeric figure in %, leaving out any unit text.

## Task Name the reported cell viability value associated with the compound `C[C@H]1CN(C[C@H](Cc2ccccc2)C(=O)NCC(=O)O)CC[C@@]1(C)c1cccc(O)c1`
## Result 93.6

## Task Next up: `O=C(O)CCc1cc(I)c(Oc2ccc(O)cc2)c(I)c1`
## Result 94.4

## Task Again, but for `C[C@]12CC[C@@H]3c4ccc(O)cc4CC[C@H]3[C@@H]1C[C@@H](O)[C@@H]2O`
## Result 101

## Task Next compound up: `C[C@@H](NC(=O)c1ncnc(N)c1Cl)c1ncc(C(=O)Nc2cc(C(F)(F)F)c(Cl)cn2)s1`
## Result 103

## Task Next compound: CC(=O)OC[C@H]1O[C@@H](n2ccc(=O)[nH]c2=O)[C@H](OC(C)=O)[C@@H]1OC(C)=O [uridine-triacetate]
## Result 114

## Task Then what about the compound `O=C(O)/C=C/c1ccc(Cn2ccnc2)cc1` ?
## Result 96.7

## Task Next entry: `Oc1cccc(-c2c3nc(c(-c4cccc(O)c4)c4ccc([nH]4)c(-c4cccc(O)c4)c4nc(c(-c5cccc(O)c5)c5ccc2[nH]5)CC4)C=C3)c1`
## Result 94.3

## Task Likewise for `Cc1cccc(C)c1NC(=O)CN1CCN(CCCC(c2ccc(F)cc2)c2ccc(F)cc2)CC1` ?
## Result 84.9

## Task Please give the result for `CC(=O)Nc1ccc(C(=O)Nc2ccccc2N)cc1` too.
## Result 93.4

## Task Can you check `CCn1cc(C(=O)O)c(=O)c2cc3c(cc21)OCO3` next?
## Result 85.3

## Task Then what about the compound `CS(=O)(=O)c1ccc(-c2cc(Br)sc2-c2ccc(F)cc2)cc1` ?
## Result 102

## Task Param item: `Cc1cc(C)c(N(Cc2ccccc2)S(=O)(=O)c2ccc(OCCNC(=O)c3cc4ccccc4o3)cc2)c(C(=O)NO)c1`
## Result 105

## Task Here is the next compound: `C[C@@H]1CN(c2c(F)c(F)c3c(=O)c(C(=O)O)cn(C4CC4)c3c2F)C[C@H](C)N1`
## Result 109

## Task Same again, this time with `O=C(Nc1ccncc1)c1cc([N+](=O)[O-])ccc1Cl`
## Result 97.9

## Task Entry `O=C1C=CC(=O)C2=C1C1c3ccccc3C2c2ccccc21` please
## Result 94.5

## Task Subsequent entry: `COc1cccc(-c2cc(=O)c3ccccc3o2)c1N`
## Result 92.7

## Task Same question for `Cc1cc(C)c(S(=O)(=O)Nc2cccc(C(F)(F)F)c2)c(C)c1` please.
## Result 108

## Task Try this compound next: `Cc1[nH]c2ccccc2c1CCNCc1ccc(/C=C/C(=O)NO)cc1`
## Result 68.4
